System: NCI-H23
Assay: NCI tumour cell line growth inhibition, 48 h
Activity calls are given as the source filed them. Cut-off read from the data, not from the text of the source: active = GI50 up to about 1.1 µM and inactive = higher.
Give measured GI50 for each item. Keep answers brief.

Before answering, review these 4 worked examples.
O=C1C=C[C@@H](COC2OC(CO)C(O)C(O)C2O)O1 (stereo not given in full) :: 10.9 µM (inactive)
CC(C)C(=O)NC(=S)Nc1ccc([N+](=O)[O-])cc1C#N :: > 100 µM (inactive)
NC1=Nc2ccccc2Sc2nnc(-c3ccc(Cl)cc3)n21 :: > 100 µM (inactive)
Cc1ccc(NC(=O)CC/C(CC(=O)c2ccc(F)cc2)=N\NC(=O)C(=O)NN)cc1C :: > 100 µM (inactive)

Switching to the query record.
In: Query: GI50; subject: NC(Cc1cc(I)c(Oc2ccc(O)c(I)c2)c(I)c1)C(=O)O (stereo not given) [RATHYRONINE]
Out: > 100 µM (inactive)

----------
Give measured GI50 for each item. Keep answers brief.
System: RPMI-8226
Test: NCI tumour cell line growth inhibition, 48 h
The source made the active and inactive calls. Rule as the data show it: active = GI50 up to about 1.1 µM and inactive = higher.

Before answering, review these 3 worked examples.
Cc1cc(O)nc(NNC(C#N)c2cccc([N+](=O)[O-])c2)n1 (stereo unspecified) :: > 100 µM (inactive)
CCOC(=O)CC(=O)NC1CC2CCC1(C)C2(C)C (stereo unspecified) :: > 100 µM (inactive)
O=C1C=C(Nc2cc(Cl)ccc2Cl)c2ccccc2C1=O :: 20.9 µM (inactive)

Report GI50 for each item below.
1. Cc1cc(C(F)(F)F)cc(-n2nc(NS(=O)(=O)c3cc(C)c(Cl)cc3S)nc2N)n1
2. O=C(CN1CCCC1=O)CS(=O)(=O)c1ccccc1
3. COc1cc(C2S/C(=C/c3ccccc3)C(=O)N2Cc2ccccc2)cc(OC)c1OC (stereo unspecified)

Out:
65.8 µM (inactive)
> 100 µM (inactive)
21.5 µM (inactive)

----------
Tested on: SK-OV-3
Assay: NCI tumour cell line growth inhibition, 48 h
Activity calls are given as the source filed them. Rule as the data show it: active = GI50 up to about 1.1 µM and inactive = higher. Residues, ends and D or L forms follow the SMILES beside them. *: point of attachment. Cbz = O=C(OCc1ccccc1)*
TEST READOUT: GI50

Before answering, review these 6 worked examples.
CC1=Nc2ccccc2SC(c2c(Cl)cccc2Cl)C1 (stereo unspecified) :: 2.45 µM (inactive)
CCOC(=O)C1=CC(C)(C(=O)OCC)Nc2c(nc(N)[nH]c2=O)N1 (stereo unspecified) :: > 10 µM (inactive)
CC(=O)NNc1nc(C)c(C(=O)/C=C/c2ccc(/C=C/C(=O)c3sc(NNC(C)=O)nc3C)cc2)s1 :: > 100 µM (inactive)
FC1(F)ON2CCc3ccccc3C2[C@H]1c1ccccc1 (stereo partly specified) :: > 10 µM (inactive)
COc1cc2c(c(O)c1C)C(=O)CC(c1ccccc1)O2 (stereo unspecified) :: 36.2 µM (inactive)
CC1=CP(=O)(OC(C)C)C=C(C)C1=C(Cl)Cl (stereo unspecified) :: 17.4 µM (inactive)

Report GI50 for each item below.
1. CCOC(=O)COc1ccc(OCC(=O)OCC)c2c1C(=O)CCCC2=O
2. CCOC(=O)CCC(NC(=O)OCc1ccccc1)C(=O)NC(CCC(=O)OCC)C(=O)OCC (stereo unspecified) (Cbz-Glu(OEt)-Glu(OEt)-OEt; configuration not given here)
3. CCOc1ccccc1/N=N/c1ccc2oc(=O)c(C(C)=O)cc2c1

Out:
["> 100 µM (inactive)", "> 100 µM (inactive)", "> 100 µM (inactive)"]

Report GI50 for each item below.
1. Cc1ccc(S(=O)(=O)NC(=O)C2C(=O)CC3(CCCCC3)CC2=O)cc1
2. Cc1cc(N2CCCCC2)nc2ccc(Cc3ccc4nc(N5CCCCC5)cc(C)c4c3)cc12
3. Cc1ccc(NC(=O)CCCC(=O)CC(=O)c2ccc(Br)cc2)cc1
4. COC(=O)C(Cc1ccccc1I)C1=CCC2(CC1)OCCO2 (stereo unspecified)
5. COC(=O)CC1C=CC(C)(OC)OO1 (stereo unspecified)
6. CS/C(=N\S(=O)(=O)c1ccc(Cl)cc1)NCCN/C(=N/S(=O)(=O)c1ccc(Cl)cc1)SC
7. COc1cc([C@@H]2c3cc4c(cc3[C@@H](NC(=O)c3cccc(C#N)c3)C3COC(=O)[C@@H]32)OCO4)cc(OC)c1O (stereo partly specified)
8. O=CC[C@H]1C(=O)C[C@@H]2CCC[C@@H]21

Out:
1: 28.2 µM (inactive); 2: > 100 µM (inactive); 3: > 100 µM (inactive); 4: 36.9 µM (inactive); 5: > 100 µM (inactive); 6: 23.6 µM (inactive); 7: 0.912 µM (active); 8: > 100 µM (inactive)

Report GI50 for each item below.
1. O=c1cc(-c2ccccc2)[nH]c2cc(Cl)cc(Cl)c12
2. Fc1ccccc1-c1nn2c(C34CC5CC(CC(C5)C3)C4)nnc2s1
3. Cc1cc(C(F)(F)F)cc(-n2nc(NS(=O)(=O)c3cc(C)c(Cl)cc3S)nc2N)n1
4. CNC1Cc2c[nH]c3cccc(c23)C12C=C(C)C(=O)O2 (stereo unspecified)

Out:
23.6 µM (inactive)
> 100 µM (inactive)
81.7 µM (inactive)
> 100 µM (inactive)

----------
Tested on: MCF7
Experiment: NCI tumour cell line growth inhibition, 48 h
Activity calls are given as the source filed them. Rule as the data show it: active = GI50 up to about 1.1 µM and inactive = higher. Peptide text beside a SMILES is read from it. * marks the point of attachment. Boc = CC(C)(C)OC(=O)*; OBn = c1ccc(CO*)cc1
TEST READOUT: GI50

Before answering, review these 5 worked examples.
O=[N+]([O-])c1ccc(Sc2c3ccccc3nc3ccccc23)nc1 :: 3.79 µM (inactive)
O=C1c2cccnc2S(=O)(=O)N1c1ccc(Oc2ccccc2)cc1 :: > 100 µM (inactive)
COc1ccc2c(c1)N=C1CSC(c3cc([N+](=O)[O-])ccc3Cl)N1C2 (stereo not given) :: 14.8 µM (inactive)
Cc1n[nH]c(=O)n1/N=C/c1ccco1 :: > 100 µM (inactive)
CC1=C(C)C2(C#N)C(=O)N3C(=NC(c4ccccc4)NC3c3ccccc3)C2(C#N)C(c2ccccc2)N1 (stereo not given) :: > 100 µM (inactive)

Report GI50 for each item below.
1. CC(C)CC(NC(=O)OC(C)(C)C)C(=O)NC(CC(=O)OCc1ccccc1)C(N)=O (stereo not drawn) (Boc-Leu-Asp(OBn)-NH2; configuration not given here)
2. N#CC1(C#N)NC(c2ccsc2)C(C#N)(C#N)NC1c1ccsc1 (stereo not given)
3. COC(C)(C)C1=CCC(C)CC1 (stereo not given)
4. CCN(CC)CCn1c(=O)c2ccccc2n2c3c(=O)n(C)c(=O)n(C)c3nc12
5. O=c1cc(NNc2cccc3ccccc23)[nH]c(=O)[nH]1

Out:
["> 100 µM (inactive)", "> 100 µM (inactive)", "41.8 µM (inactive)", "0.337 µM (active)", "1.69 µM (inactive)"]

----------
System: COLO 205
Assay: NCI tumour cell line growth inhibition, 48 h
Activity calls are given as the source filed them. Cut-off read from the data, not from the text of the source: active = GI50 up to about 1.1 µM and inactive = higher.
TEST READOUT: GI50

Before answering, review these 2 worked examples.
COc1cc(C2S/C(=C/c3ccccc3)C(=O)N2Cc2ccccc2)cc(OC)c1OC (stereo not given) :: 30.1 µM (inactive)
CC(C)(C)c1cc([Si](C)(C)C)c(C#N)c([Si](C)(C)C)c1 :: 51.3 µM (inactive)

Report GI50 for each item below.
1. FC(F)(F)C1(c2ccccc2)SCc2nc3ccccc3n21 (stereo not given)
2. O=C(O)/C(=C/C(=O)c1ccc(Cl)cc1)NNc1ccc([N+](=O)[O-])cc1[N+](=O)[O-]
3. CC(CO)(Nc1ccc([N+](=O)[O-])cc1[N+](=O)[O-])C(=O)O (stereo not given)
4. CCN(CC)CCn1c(=O)c2ccccc2n2c3c(=O)n(C)c(=O)n(C)c3nc12
5. C=C1C(=O)OC2(C)CCC1CC1OC1(C)CCC=C(C)CCC2O (stereo not given)

Out:
1. > 100 µM (inactive)
2. > 100 µM (inactive)
3. 16.9 µM (inactive)
4. 1.55 µM (inactive)
5. > 100 µM (inactive)

Report GI50 for each item below.
1. Cc1cc(NCCCCCCCNc2cc(C)nc3cc([N+](=O)[O-])ccc23)c2ccc([N+](=O)[O-])cc2n1
2. Cc1ccc(Cn2c(C)nc3c2C(=O)c2ccccc2C3=O)cc1

Out:
["9.23 µM (inactive)", "15.8 µM (inactive)"]

In: Query: GI50; subject: C#C[C@@H](CCCC)OC(=O)N[C@H](C)c1ccccc1
Out: 2.45 µM (inactive)

----------
Give measured GI50 for each item. Keep answers brief.
Test system: LOX IMVI
Assay: NCI tumour cell line growth inhibition, 48 h
Calls of active or inactive are those of the source. No stated cut-off is given here; in the data, active = GI50 up to about 1.1 µM and inactive = higher.

Cc1ccc(/C=C2\CN(C)CC3=C2N=C(S)NC3c2ccc(C)cc2)cc1 (stereo not drawn) :: 30.3 µM (inactive)

Report GI50 for each item below.
1. CN1C(Cl)=NS(=O)(=O)c2ccccc21
2. CCOC(=O)COc1ccc(OCC(=O)OCC)c2c1C(=O)CCCC2=O

Out:
["> 100 µM (inactive)", "> 100 µM (inactive)"]
